Listed here are compounds together with their documented 425~465 nm Tmin, Δ.
test: Transmittance of absorption membrane before and after reliability evaluation (Test Example 1); assay type: physicochemical; conditions: change before/after 85° C., 85% RH, 120 hours
endpoint.name: 425~465 nm Tmin, Δ (%)

compound: CC1(C)C(/C=C/C=C/C=C/C=C2\N(C[Si](C)(C)C)c3ccc4ccccc4c3C2(C)C)=[N+](C[Si](C)(C)C)c2ccc3ccccc3c21 [Embodiment 2]
value.unit: %
meas.value: 0.1

compound: CC1(C)C(/C=C/C=C/C=C/C=C2\N(C[Si](C)(C)C)c3ccccc3C2(C)C)=[N+](C[Si](C)(C)C)c2ccccc21 [Embodiment 1]
value.unit: %
meas.value: 0.1

compound: CCCCN1/C(=C\C=C2/CCC(/C=C/C3=[N+](CCCC)c4ccccc4C3(C)C)=C2Cl)C(C)(C)c2ccccc21 [Comparative Example 3]
value.unit: %
meas.value: 0

compound: CCCCN1\C(=C/C=C/C=C/C=C/C2=[N+](CCCC)c3ccccc3C2(C)C)C(C)(C)c2ccccc21 [Comparative Example 1]
value.unit: %
meas.value: 1.0

compound: CC1(C)C(/C=C/C2=C(Cl)C(=C/C=C3\N(C[Si](C)(C)C)c4ccccc4C3(C)C)/CC2)=[N+](C[Si](C)(C)C)c2ccccc21 [Embodiment 3]
value.unit: %
meas.value: 0.1

compound: CCCCN1\C(=C/C=C/C=C/C=C/C2=[N+](CCCC)c3ccc4ccccc4c3C2(C)C)C(C)(C)c2c1ccc1ccccc21 [Comparative Example 2]
value.unit: %
meas.value: −0.2

----------
assay: Absorption spectra of absorption membrane before and after high temperature/high humidity evaluation (Test Example 2); assay type: physicochemical; settings: absorption membrane before 85° C., 85% relative humidity, 120 hours
endpoint.name: λi, absorption maximum wavelength (nm)

chemical.structure: CC1(C)C(/C=C/C=C/C=C/C=C2\N(C[Si](C)(C)C)c3ccccc3C2(C)C)=[N+](C[Si](C)(C)C)c2ccccc21
value.unit: nm
meas.value: 758
//
chemical.structure: CCCCN1\C(=C/C=C/C=C/C=C/C2=[N+](CCCC)c3ccc4ccccc4c3C2(C)C)C(C)(C)c2c1ccc1ccccc21
value.unit: nm
meas.value: 784
//
chemical.structure: CC1(C)C(/C=C/C2=C(Cl)C(=C/C=C3\N(C[Si](C)(C)C)c4ccccc4C3(C)C)/CC2)=[N+](C[Si](C)(C)C)c2ccccc21
value.unit: nm
meas.value: 82.
//
chemical.structure: CCCCN1/C(=C\C=C2/CCC(/C=C/C3=[N+](CCCC)c4ccccc4C3(C)C)=C2Cl)C(C)(C)c2ccccc21
value.unit: nm
meas.value: 819
//
chemical.structure: CCCCN1\C(=C/C=C/C=C/C=C/C2=[N+](CCCC)c3ccccc3C2(C)C)C(C)(C)c2ccccc21
value.unit: nm
meas.value: 748
//
chemical.structure: CC1(C)C(/C=C/C=C/C=C/C=C2\N(C[Si](C)(C)C)c3ccc4ccccc4c3C2(C)C)=[N+](C[Si](C)(C)C)c2ccc3ccccc3c21
value.unit: nm
meas.value: 790

----------
Listed here are compounds together with their documented 425~465 nm Tmin, B.
assay: Transmittance of absorption membrane before and after reliability evaluation (Test Example 1); type: physicochemical; conditions: silicone resin membrane about 6 μm; before reliability evaluation
endpoint.name: 425~465 nm Tmin, B (%)

compound: CCCCN1\C(=C/C=C/C=C/C=C/C2=[N+](CCCC)c3ccccc3C2(C)C)C(C)(C)c2ccccc21 [Comparative Example 1]
endpoint.name: 425~465 nm Tmin, B
meas.value: 86.5
--
compound: CC1(C)C(/C=C/C=C/C=C/C=C2\N(C[Si](C)(C)C)c3ccc4ccccc4c3C2(C)C)=[N+](C[Si](C)(C)C)c2ccc3ccccc3c21 [Embodiment 2]
endpoint.name: 425~465 nm Tmin, B
meas.value: 88.6
--
compound: CCCCN1/C(=C\C=C2/CCC(/C=C/C3=[N+](CCCC)c4ccccc4C3(C)C)=C2Cl)C(C)(C)c2ccccc21 [Comparative Example 3]
endpoint.name: 425~465 nm Tmin, B
meas.value: 86.5
--
compound: CC1(C)C(/C=C/C=C/C=C/C=C2\N(C[Si](C)(C)C)c3ccccc3C2(C)C)=[N+](C[Si](C)(C)C)c2ccccc21 [Embodiment 1]
endpoint.name: 425~465 nm Tmin, B
meas.value: 87.9
--
compound: CCCCN1\C(=C/C=C/C=C/C=C/C2=[N+](CCCC)c3ccc4ccccc4c3C2(C)C)C(C)(C)c2c1ccc1ccccc21 [Comparative Example 2]
endpoint.name: 425~465 nm Tmin, B
meas.value: 88.9
--
compound: CC1(C)C(/C=C/C2=C(Cl)C(=C/C=C3\N(C[Si](C)(C)C)c4ccccc4C3(C)C)/CC2)=[N+](C[Si](C)(C)C)c2ccccc21 [Embodiment 3]
endpoint.name: 425~465 nm Tmin, B
meas.value: 86.8

----------
Listed here are compounds together with their documented Af, transmittance at the absorption maximum wavelength.
experiment: Absorption spectra of absorption membrane before and after high temperature/high humidity evaluation (Test Example 2); type: physicochemical; settings: absorption membrane after 85° C., 85% relative humidity, 120 hours
endpoint.name: Af, transmittance at the absorption maximum wavelength (%)

chemical.structure: CC1(C)C(/C=C/C=C/C=C/C=C2\N(C[Si](C)(C)C)c3ccccc3C2(C)C)=[N+](C[Si](C)(C)C)c2ccccc21
value.unit: %
meas.value: 12.3

chemical.structure: CC1(C)C(/C=C/C2=C(Cl)C(=C/C=C3\N(C[Si](C)(C)C)c4ccccc4C3(C)C)/CC2)=[N+](C[Si](C)(C)C)c2ccccc21
value.unit: %
meas.value: 12.3

chemical.structure: CC1(C)C(/C=C/C=C/C=C/C=C2\N(C[Si](C)(C)C)c3ccc4ccccc4c3C2(C)C)=[N+](C[Si](C)(C)C)c2ccc3ccccc3c21
value.unit: %
meas.value: 34.9

chemical.structure: CCCCN1/C(=C\C=C2/CCC(/C=C/C3=[N+](CCCC)c4ccccc4C3(C)C)=C2Cl)C(C)(C)c2ccccc21
value.unit: %
meas.value: 33.0

chemical.structure: CCCCN1\C(=C/C=C/C=C/C=C/C2=[N+](CCCC)c3ccc4ccccc4c3C2(C)C)C(C)(C)c2c1ccc1ccccc21
value.unit: %
meas.value: 59.8

chemical.structure: CCCCN1\C(=C/C=C/C=C/C=C/C2=[N+](CCCC)c3ccccc3C2(C)C)C(C)(C)c2ccccc21
value.unit: %
meas.value: 36.0

----------
test: Transmittance of absorption membrane before and after reliability evaluation (Test Example 1); type: physicochemical; conditions: change before/after 85° C., 85% RH, 120 hours
endpoint.name: 466~480 nm Tmin, Δ

chemical.structure: CC1(C)C(/C=C/C=C/C=C/C=C2\N(C[Si](C)(C)C)c3ccc4ccccc4c3C2(C)C)=[N+](C[Si](C)(C)C)c2ccc3ccccc3c21
meas.value: 0.1%
--
chemical.structure: CC1(C)C(/C=C/C2=C(Cl)C(=C/C=C3\N(C[Si](C)(C)C)c4ccccc4C3(C)C)/CC2)=[N+](C[Si](C)(C)C)c2ccccc21
meas.value: 0.1%
--
chemical.structure: CCCCN1\C(=C/C=C/C=C/C=C/C2=[N+](CCCC)c3ccc4ccccc4c3C2(C)C)C(C)(C)c2c1ccc1ccccc21
meas.value: −0.1%
--
chemical.structure: CC1(C)C(/C=C/C=C/C=C/C=C2\N(C[Si](C)(C)C)c3ccccc3C2(C)C)=[N+](C[Si](C)(C)C)c2ccccc21
meas.value: 0%
--
chemical.structure: CCCCN1/C(=C\C=C2/CCC(/C=C/C3=[N+](CCCC)c4ccccc4C3(C)C)=C2Cl)C(C)(C)c2ccccc21
meas.value: −0.6%
--
chemical.structure: CCCCN1\C(=C/C=C/C=C/C=C/C2=[N+](CCCC)c3ccccc3C2(C)C)C(C)(C)c2ccccc21
meas.value: −0.7%

----------
Assay: Absorption spectra of absorption membrane before and after high temperature/high humidity evaluation (Test Example 2)
Type: physicochemical
Conditions: absorption membrane after 85° C., 85% relative humidity, 120 hours
Source text: FIGS. 4 to 6 are the absorption spectra of the absorption membranes prepared in Test Example 1 using the absorbents of Embodiments 1 to 3, respectively. FIGS. 7 to 9 are the absorption spectrum of the absorption membrane prepared in Test Example using the absorbents of Comparative Examples 1 to 3, respectively. […] In Tables 4 and 5, ΔA is a value calculated as 100×(Af−Ai)/Ai, and Δλ is a value calculated as 100×(λf−λi)λi.
Listed here are molecules together with their documented λf, absorption maximum wavelength.

chemical.structure: CCCCN1/C(=C\C=C2/CCC(/C=C/C3=[N+](CCCC)c4ccccc4C3(C)C)=C2Cl)C(C)(C)c2ccccc21
value.unit: nm
λf, absorption maximum wavelength: 818

chemical.structure: CCCCN1\C(=C/C=C/C=C/C=C/C2=[N+](CCCC)c3ccc4ccccc4c3C2(C)C)C(C)(C)c2c1ccc1ccccc21
value.unit: nm
λf, absorption maximum wavelength: 785

chemical.structure: CCCCN1\C(=C/C=C/C=C/C=C/C2=[N+](CCCC)c3ccccc3C2(C)C)C(C)(C)c2ccccc21
value.unit: nm
λf, absorption maximum wavelength: 747

chemical.structure: CC1(C)C(/C=C/C=C/C=C/C=C2\N(C[Si](C)(C)C)c3ccc4ccccc4c3C2(C)C)=[N+](C[Si](C)(C)C)c2ccc3ccccc3c21
value.unit: nm
λf, absorption maximum wavelength: 790

chemical.structure: CC1(C)C(/C=C/C=C/C=C/C=C2\N(C[Si](C)(C)C)c3ccccc3C2(C)C)=[N+](C[Si](C)(C)C)c2ccccc21
value.unit: nm
λf, absorption maximum wavelength: 758

chemical.structure: CC1(C)C(/C=C/C2=C(Cl)C(=C/C=C3\N(C[Si](C)(C)C)c4ccccc4C3(C)C)/CC2)=[N+](C[Si](C)(C)C)c2ccccc21
value.unit: nm
λf, absorption maximum wavelength: 823
